Recorded values, source patent US10905683B2.

- Protocol summary: Phase 1 Part 1, single ascending oral dose pharmacokinetics and food effect
- Format: in vivo, human
- Assay conditions: human, plasma, po, 250 mg, 250 mg single oral dose, fasting; GM
- Method: A two-part, Phase 1, double-blind, placebo-controlled study of the compound of Example 1 was conducted in healthy subjects. Part 1 of the study assessed the safety, tolerability and the pharmacokinetic (PK) and pharmacodynamic (PD) properties of the compound of Example 1 following a single ascending dose. […] Compound concentrations then declined biphasically and were quantifiable through 9 hours postdose in Cohort 1 (50 mg) and 24 hours postdose in Cohorts 4 and 5 (500 and 1000 mg).
Readout name: AUC(0-inf)
Form entry: enter the amount, then its unit.

Exam item: Could you share which AUC(0-inf) value was measured for C=Cc1cc(C(=O)Nc2ccc(C(=N)N)cc2)c(-c2ccc(C(=O)NCC3CC3)nc2C(=O)O)cc1OC [Example 1] ?
Marked response: 353 ng·h/mL

* * *

- Protocol summary: Phase 1 Part 2, multiple ascending dose pharmacokinetics (7 days, q8h)
- Format: in vivo, human
- Assay conditions: human, plasma, oral, 400 mg, Day 7, 400 mg q 8 h, Median; read-out: t1/2 (converted)
Readout name: half-life (h)
Reply numerically in h, unit not repeated.

Exam item: Could you share which half-life value was measured for C=Cc1cc(C(=O)Nc2ccc(C(=N)N)cc2)c(-c2ccc(C(=O)NCC3CC3)nc2C(=O)O)cc1OC [Example 1] ?
Marked response: 12.7

* * *

- Protocol summary: Further solubility studies in solvents, mixtures and surfactants
- Assay type: physicochemical
- Assay conditions: 10% EtOH with 90% PG, organic solvent or mixture, thermodynamic from solid, 10% EtOH with 90% PG; read-out: Example 1 Solubility After 24 hrs
Readout name: solubility at 24 h

Exam item: Could you share which solubility at 24 h value was measured for C=Cc1cc(C(=O)Nc2ccc(C(=N)N)cc2)c(-c2ccc(C(=O)NCC3CC3)nc2C(=O)O)cc1OC ?
Marked response: > 100 mg/mL

* * *

- Protocol summary: Phase 1 Part 2, multiple ascending dose pharmacokinetics (7 days, q8h)
- Format: in vivo, human
- Assay conditions: human, plasma, oral, 100 mg, Day 7, 100 mg q 8 h, Median
Readout name: Cmax (ng/mL)
Reply numerically in ng/mL, unit not repeated.

Exam item: Could you share which Cmax value was measured for C=Cc1cc(C(=O)Nc2ccc(C(=N)N)cc2)c(-c2ccc(C(=O)NCC3CC3)nc2C(=O)O)cc1OC ?
Marked response: 71.2

* * *

- Protocol summary: Phase 1 Part 1, single ascending oral dose pharmacokinetics and food effect
- Type: in vivo, human
- Assay conditions: human, plasma, oral, 50 mg, Cohort 1 (50 mg single dose); read-out: terminal half-life (converted)
Readout name: half-life

Exam item: Could you share which half-life value was measured for C=Cc1cc(C(=O)Nc2ccc(C(=N)N)cc2)c(-c2ccc(C(=O)NCC3CC3)nc2C(=O)O)cc1OC ?
Marked response: ~3 h

* * *

- Protocol summary: Further solubility studies in solvents, mixtures and surfactants
- Type: physicochemical
- Assay conditions: propylene glycol, organic solvent or mixture, thermodynamic from solid, Propylene Glycol; read-out: Example 1 Solubility After 24 hrs
- Experimental: The solubility of the compound of Example 1 in a range of organic solvents, mixtures thereof, and some including surfactants, was measured. […] The resulting suspension is then shaken for 24 hours at room temperature, filtered and the resulting solution was analyzed by appropriate analytical method. Quantitation was performed by comparison of the concentrations of the resulting solution of the compound 1 to a single point calibration curve using a solution of the reference standard. […]
Readout name: solubility at 24 h

Exam item: Could you share which solubility at 24 h value was measured for C=Cc1cc(C(=O)Nc2ccc(C(=N)N)cc2)c(-c2ccc(C(=O)NCC3CC3)nc2C(=O)O)cc1OC ?
Marked response: > 150 mg/mL
